Hi there, I'd appreciate the recorded RLU for every entry that follows.
Target: human TAS2R1 (Homo sapiens, UniProt Q9NYW7)
Construct: expressed in transfected cells; host or cells: HEK293T-Gα16gust44
Sequence (Q9NYW7 whole entry): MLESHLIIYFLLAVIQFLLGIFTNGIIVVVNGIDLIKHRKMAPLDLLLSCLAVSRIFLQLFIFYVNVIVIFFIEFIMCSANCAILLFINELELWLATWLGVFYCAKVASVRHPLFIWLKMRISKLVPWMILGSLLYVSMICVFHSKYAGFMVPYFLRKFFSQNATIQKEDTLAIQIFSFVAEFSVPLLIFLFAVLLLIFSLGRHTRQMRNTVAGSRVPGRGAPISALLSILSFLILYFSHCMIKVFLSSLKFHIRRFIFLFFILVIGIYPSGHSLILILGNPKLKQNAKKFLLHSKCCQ
Experiment: Calcium imaging assay (FLIPR), HEK293T-Gα16gust44 cells transfected with human TAS2R1
Format: cell-based
Settings: Time 40.796 s
Method: This set of bile acids was chosen because of their commercial availability in high purities, their diversity within the class of bile acids and their previous detection and quantitation in human blood. Stock solutions were prepared in DMSO. […] Measured data were negative control corrected by subtracting the signal of the mock-transfected cells and exported to Microsoft Excel using the FLIPR software ScreenWorks 4.2. […]
Just the number in RLU, nothing appended.

Ask: Recorded RLU of C[C@H](CCC(=O)O)[C@H]1CC[C@H]2[C@@H]3[C@@H](O)C[C@@H]4C[C@H](O)CC[C@]4(C)[C@H]3CC[C@]12C , please.
Result: 688.451

Ask: Recorded RLU of C[C@H](CCC(=O)O)[C@H]1CC[C@H]2[C@@H]3[C@H](O)C[C@@H]4C[C@H](O)CC[C@]4(C)[C@H]3CC[C@]12C , please.
Result: 853.586

Ask: Recorded RLU of C[C@H](CCC(=O)O)[C@H]1CC[C@H]2[C@@H]3[C@H](O)C[C@@H]4C[C@H](O)CC[C@]4(C)[C@H]3C[C@H](O)[C@]12C , please.
Result: 646.063

Ask: Recorded RLU of C[C@H](CCC(=O)O)[C@H]1CC[C@H]2[C@@H]3CC[C@@H]4C[C@H](O)CC[C@]4(C)[C@H]3CC[C@]12C , please.
Result: 612.54

Data origin, for the record: paper PMC10247784
